From: patent US20230135894A1

Molecular target: MK2 (Homo sapiens)
Sequence (P49137 whole entry): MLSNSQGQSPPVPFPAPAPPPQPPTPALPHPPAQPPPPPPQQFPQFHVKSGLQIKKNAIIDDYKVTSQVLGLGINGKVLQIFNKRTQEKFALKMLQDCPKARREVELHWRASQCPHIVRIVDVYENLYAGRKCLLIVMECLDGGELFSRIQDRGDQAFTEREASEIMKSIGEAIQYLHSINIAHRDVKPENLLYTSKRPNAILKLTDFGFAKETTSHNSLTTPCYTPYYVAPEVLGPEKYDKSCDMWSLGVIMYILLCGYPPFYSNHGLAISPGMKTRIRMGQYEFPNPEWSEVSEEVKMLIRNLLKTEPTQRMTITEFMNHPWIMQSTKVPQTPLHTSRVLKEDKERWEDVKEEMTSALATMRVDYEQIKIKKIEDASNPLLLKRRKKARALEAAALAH
Assay: MK2 degradation in human THP-1 monocytic cells (MSD, 24 h)
Type: cell-based
Set-up: endogenous in cells
Conditions: THP-1 cells, read-out: MK2 MSD THP-1 degradation 24 h GMean External Abs DC50
Here, each record is paired with measured DC50 data.

Please review the entries below; each comes with its answer.
Cn1c(=O)n(C2CCC(=O)NC2=O)c2ccc(N3CCC(CN4CCN(c5ccc(-c6cc(-c7cc8c(s7)CCNC8=O)ccn6)cc5)CC4)CC3)cc21 (centres unmarked) [Compound I-406] ... > 100 nM
C[C@@H]1CNc2c(sc3ccc4nc(-c5ccc(CNC(=O)CCCCCCCCCc6cccc7c6n(C)c(=O)n7C6CCC(=O)NC6=O)cc5)ccc4c23)C(=O)N1 (some centres unmarked) [Compound I-86] ... 1 to 10 nM
C[C@@H]1CNc2c(sc3ccc4nc(N5CCC(N6CCC7(CC6)CN(c6ccc8c(c6)n(C)c(=O)n8C6CCC(=O)NC6=O)C7)CC5)ccc4c23)C(=O)N1 (some centres unmarked) [Compound I-402] ... 1 to 10 nM
C[C@@H]1CNc2c(sc3ccc4nc(-c5cccc(N6CCN(C(=O)COCCOCCOCCOCCc7ccc8c(c7)n(C)c(=O)n8C7CCC(=O)NC7=O)CC6)c5)ccc4c23)C(=O)N1 (some centres unmarked) [Compound I-36] ... 1 to 10 nM
Cn1c(=O)n(C2CCC(=O)NC2=O)c2cccc(CCCN3CCN(c4ccc(-c5cc(-c6cc7c([nH]6)C6(CCCC6)CNC7=O)ccn5)cc4)CC3)c21 (centres unmarked) [Compound I-191] ... 10 to 100 nM
C[C@@H]1CNc2c(sc3ccc4nc(-c5ccc(N6CCN(CCCCCc7cccc8c7n(C)c(=O)n8C7CCC(=O)NC7=O)CC6)cc5)ccc4c23)C(=O)N1 (some centres unmarked) [Compound I-171] ... 1 to 10 nM
C[C@@H]1CNc2c(sc3ccc4nc(-c5cncc(C6CCN(CCCCCCCCc7cccc8c7n(C)c(=O)n8C7CCC(=O)NC7=O)CC6)c5)ccc4c23)C(=O)N1 (some centres unmarked) [Compound I-103] ... < 1 nM
C[C@@H]1CNc2c(sc3ccc4nc(-c5ccc(N6CCC(CN7CCN(c8cccc9c8n(C)c(=O)n9C8CCC(=O)NC8=O)CC7)CC6)cc5)ccc4c23)C(=O)N1 (some centres unmarked) [Compound I-315] ... 1 to 10 nM
C[C@@H]1CNc2c(sc3ccc4nc(-c5ccc(N6CCN(CC7CCN(c8cccc9c8n(C)c(=O)n9C8CCC(=O)NC8=O)CC7)CC6)nc5)ccc4c23)C(=O)N1 (some centres unmarked) [Compound I-125] ... < 1 nM
C[C@@H]1CN(C)c2c(sc3ccc4nc(-c5ccc(N6CCN(CCc7cccc8c7n(C)c(=O)n8C7CCC(=O)NC7=O)CC6)cc5)ccc4c23)C(=O)N1 (some centres unmarked) [Compound I-413] ... < 1 nM

Okay, next one:
In: Can you share its DC50? I mean this compound: Cn1c(=O)n(C2CCC(=O)NC2=O)c2cccc(N3CCC(CCN4CCN(c5ccc(-c6cc(-c7cc8c([nH]7)CCNC8=O)ccn6)cc5)CC4)CC3)c21 (centres unmarked) [Compound I-139]
Out: < 1 nM
